# MEASURED_ON: CDK9/CycK (Homo sapiens)
# Sequence (P50750 whole entry): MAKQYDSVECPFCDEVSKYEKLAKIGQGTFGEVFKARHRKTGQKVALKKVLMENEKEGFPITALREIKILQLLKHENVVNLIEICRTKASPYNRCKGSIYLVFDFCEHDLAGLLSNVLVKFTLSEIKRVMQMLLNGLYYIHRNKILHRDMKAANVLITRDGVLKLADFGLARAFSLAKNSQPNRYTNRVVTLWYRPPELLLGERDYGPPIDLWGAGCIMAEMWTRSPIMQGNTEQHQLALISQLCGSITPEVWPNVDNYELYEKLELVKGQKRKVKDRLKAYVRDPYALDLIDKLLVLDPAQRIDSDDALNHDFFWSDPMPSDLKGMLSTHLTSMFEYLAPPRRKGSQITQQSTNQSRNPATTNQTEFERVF
# Sequence (O75909 whole entry partner): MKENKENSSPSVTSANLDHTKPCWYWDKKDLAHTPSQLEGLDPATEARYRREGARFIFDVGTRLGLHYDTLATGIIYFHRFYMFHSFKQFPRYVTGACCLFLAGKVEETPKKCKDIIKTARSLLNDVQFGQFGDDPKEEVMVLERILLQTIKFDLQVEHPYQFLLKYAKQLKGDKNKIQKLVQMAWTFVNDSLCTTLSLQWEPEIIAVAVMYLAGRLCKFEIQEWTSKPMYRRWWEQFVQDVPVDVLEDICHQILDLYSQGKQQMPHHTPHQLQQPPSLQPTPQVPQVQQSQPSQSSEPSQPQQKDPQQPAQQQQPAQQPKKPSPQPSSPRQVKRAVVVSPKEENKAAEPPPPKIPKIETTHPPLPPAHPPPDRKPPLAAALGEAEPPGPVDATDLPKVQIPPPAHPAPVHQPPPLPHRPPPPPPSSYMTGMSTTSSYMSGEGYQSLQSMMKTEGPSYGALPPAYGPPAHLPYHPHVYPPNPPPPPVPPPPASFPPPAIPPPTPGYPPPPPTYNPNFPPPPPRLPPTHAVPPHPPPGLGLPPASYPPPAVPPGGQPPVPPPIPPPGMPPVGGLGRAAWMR
# PROTOCOL_DETAILS: Kinase profiling
# STUDY_CONDITIONS: 10 semi-logarithmic dilutions from 50 μM, singlicate
PARAMETER: IC50 (nM)
Reply with just the number (in nM).

Example entries begin here.
O=c1ccc2cnc(Nc3ccc(N4CCNCC4)cc3)nc2n1[C@@H]1CC2CCC1C2 (stereo partly shown): 7.17
O=c1ccc2cnc(Nc3ccc(N4CCC(CCCO)CC4)cc3F)nc2n1[C@@H]1CC2CCC1C2 (stereo partly shown): 7050
CC(=O)c1c(C)c2cnc(Nc3ccc(N4CCC(CCCO)CC4)cc3)nc2n(C2CCCC2)c1=O: 56

Lab note: need IC50 for CC(O)COC1CCN(c2ccc(Nc3ncc4ccc(=O)n([C@@H]5CC6CCC5C6)c4n3)cc2)CC1 (stereo partly shown) on CDK9/CycK (Homo sapiens), anyone have it?
148

* * *

The following compounds are listed with their measured log10(IC50) values.
# MEASURED_ON: CDK4/CycD1 (Homo sapiens)
# Sequence (P11802 whole entry): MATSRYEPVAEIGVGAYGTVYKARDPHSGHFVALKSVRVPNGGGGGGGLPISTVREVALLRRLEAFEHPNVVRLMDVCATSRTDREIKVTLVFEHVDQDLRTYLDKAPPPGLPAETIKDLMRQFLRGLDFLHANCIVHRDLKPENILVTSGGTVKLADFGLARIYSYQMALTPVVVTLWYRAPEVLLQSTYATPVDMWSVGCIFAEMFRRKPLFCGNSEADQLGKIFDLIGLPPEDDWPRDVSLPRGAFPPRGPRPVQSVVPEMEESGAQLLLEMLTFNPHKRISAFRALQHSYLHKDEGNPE
# Sequence (P24385 whole entry partner): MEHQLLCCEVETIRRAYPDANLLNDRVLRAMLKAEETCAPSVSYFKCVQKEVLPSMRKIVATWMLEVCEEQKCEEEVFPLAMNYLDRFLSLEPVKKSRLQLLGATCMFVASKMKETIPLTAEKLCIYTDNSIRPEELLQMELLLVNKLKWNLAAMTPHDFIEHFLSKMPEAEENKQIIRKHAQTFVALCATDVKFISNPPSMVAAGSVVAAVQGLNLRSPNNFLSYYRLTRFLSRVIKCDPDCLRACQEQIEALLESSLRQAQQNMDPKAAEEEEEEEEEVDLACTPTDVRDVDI
# PROTOCOL_DETAILS: Kinase profiling
# Type: biochemical
# STUDY_CONDITIONS: 10 semi-logarithmic dilutions from 50 μM, singlicate
Recall that a logarithmic scale is used here: each number is log10 of IC50 in nM.

Which log10(IC50) value belongs to O=c1ccc2cnc(Nc3ccc(N4CCC(CCCO)CC4)cc3)nc2n1C1CC2CCC1C2 (centres unmarked) [PD-0183812, reference compound] ?
1.50

Entry CC(O)CCC1CCN(c2ccc(Nc3ncc4ccc(=O)n([C@@H]5CC6CCC5C6)c4n3)cc2)CC1 (some centres unmarked) : reported log10(IC50) = ?
1.55

Would you kindly share the measured log10(IC50) for "CC(=O)c1c(C)c2cnc(Nc3ccc(N4CCC(CCCO)CC4)cc3)nc2n(C2CCCC2)c1=O" ?
1.41

Form field: reported log10(IC50) of CC(=O)c1c(C)c2cnc(Nc3ccc(N4CCC(CCCO)CC4)cc3)nc2n([C@@H]2CC3CCC2C3)c1=O (some centres unmarked)
2.00

What log10(IC50) value was documented for this compound, O=c1ccc2cnc(Nc3ccc(N4CCC(OCC5(CO)COC5)CC4)cc3)nc2n1[C@@H]1CC2CCC1C2 (some centres unmarked) ?
0.95

Query: log10(IC50); subject: O=c1ccc2cnc(Nc3ccc(N4CCC(CCCO)CC4)c(F)c3)nc2n1[C@@H]1CC2CCC1C2 (some centres unmarked)
2.18

* * *

# MEASURED_ON: CDC7/DBF4 (Homo sapiens, UniProt O00311)
# Sequence (O00311 whole entry): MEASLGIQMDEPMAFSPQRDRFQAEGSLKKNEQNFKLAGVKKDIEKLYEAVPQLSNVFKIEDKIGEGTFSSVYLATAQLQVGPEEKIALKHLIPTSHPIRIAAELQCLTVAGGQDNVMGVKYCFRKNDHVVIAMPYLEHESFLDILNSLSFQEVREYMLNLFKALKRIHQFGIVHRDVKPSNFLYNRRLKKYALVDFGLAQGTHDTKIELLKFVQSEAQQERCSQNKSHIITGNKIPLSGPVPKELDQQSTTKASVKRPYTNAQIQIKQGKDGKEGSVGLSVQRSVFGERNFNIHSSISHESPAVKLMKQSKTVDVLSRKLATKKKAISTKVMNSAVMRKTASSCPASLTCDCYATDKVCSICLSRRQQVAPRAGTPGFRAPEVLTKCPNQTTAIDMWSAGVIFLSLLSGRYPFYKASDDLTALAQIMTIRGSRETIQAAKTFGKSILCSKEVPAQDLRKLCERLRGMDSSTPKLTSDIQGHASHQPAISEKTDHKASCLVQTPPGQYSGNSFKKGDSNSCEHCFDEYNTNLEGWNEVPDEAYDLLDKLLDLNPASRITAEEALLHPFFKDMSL
# Sequence (Q9UBU7 whole entry partner): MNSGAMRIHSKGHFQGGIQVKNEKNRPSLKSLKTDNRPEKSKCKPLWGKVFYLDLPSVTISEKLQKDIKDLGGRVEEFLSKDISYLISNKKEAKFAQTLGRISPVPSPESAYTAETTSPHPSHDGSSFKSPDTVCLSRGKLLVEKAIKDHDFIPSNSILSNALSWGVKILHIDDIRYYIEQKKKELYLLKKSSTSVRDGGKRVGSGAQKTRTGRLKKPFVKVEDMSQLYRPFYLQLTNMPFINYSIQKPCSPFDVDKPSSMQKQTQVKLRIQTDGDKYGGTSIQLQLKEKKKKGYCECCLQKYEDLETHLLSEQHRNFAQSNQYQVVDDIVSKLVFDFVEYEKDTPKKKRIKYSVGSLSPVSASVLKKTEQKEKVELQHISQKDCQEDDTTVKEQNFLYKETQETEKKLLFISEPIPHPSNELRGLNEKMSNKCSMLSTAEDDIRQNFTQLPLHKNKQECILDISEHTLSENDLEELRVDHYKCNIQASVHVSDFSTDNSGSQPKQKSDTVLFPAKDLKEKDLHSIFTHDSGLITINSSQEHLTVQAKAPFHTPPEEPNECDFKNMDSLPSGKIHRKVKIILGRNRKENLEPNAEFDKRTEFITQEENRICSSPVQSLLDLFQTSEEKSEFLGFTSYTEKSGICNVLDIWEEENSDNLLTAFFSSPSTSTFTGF
# PROTOCOL_DETAILS: Kinase profiling
# Assay type: biochemical
# STUDY_CONDITIONS: 10 semi-logarithmic dilutions from 50 μM, singlicate; read-out: IC50 CDC7/DBF4
PARAMETER: IC50 (µM)
Respond numerically; units are µM and should not be typed.

O=c1ccc2cnc(Nc3ccc(N4CCNCC4)cc3)nc2n1[C@@H]1CC2CCC1C2 (stereo partly drawn) [PS007]: 0.537
CC(O)CCC1CCN(c2ccc(Nc3ncc4ccc(=O)n([C@@H]5CC6CCC5C6)c4n3)cc2)CC1 (stereo partly drawn) [PS004]: 9.9
CC(=O)c1c(C)c2cnc(Nc3ccc(N4CCNCC4)cc3)nc2n([C@@H]2CC3CCC2C3)c1=O (stereo partly drawn) [PS010]: 13.5
CC(O)CCN1CCN(c2ccc(Nc3ncc4ccc(=O)n([C@@H]5CC6CCC5C6)c4n3)cc2)CC1 (stereo partly drawn) [PS005]: 1.53

Endpoint output: IC50 of CC(O)COC1CCN(c2ccc(Nc3ncc4ccc(=O)n([C@@H]5CC6CCC5C6)c4n3)cc2)CC1 (stereo partly drawn) [PS006] . Value?
5.57

I have this molecule here, O=c1ccc2cnc(Nc3ccc(N4CCC(CCCO)CC4)cc3F)nc2n1[C@@H]1CC2CCC1C2 (stereo partly drawn) [PS002] , and I need its recorded IC50.
14.6

I am curious: what IC50 value has been reported for O=c1ccc2cnc(Nc3ccc(N4CCC(OCC5(CO)COC5)CC4)cc3)nc2n1[C@@H]1CC2CCC1C2 (stereo partly drawn) [PS016] ?
1.98

* * *

# MEASURED_ON: CDK6/CycD1 (Homo sapiens)
# Sequence (Q00534 whole entry): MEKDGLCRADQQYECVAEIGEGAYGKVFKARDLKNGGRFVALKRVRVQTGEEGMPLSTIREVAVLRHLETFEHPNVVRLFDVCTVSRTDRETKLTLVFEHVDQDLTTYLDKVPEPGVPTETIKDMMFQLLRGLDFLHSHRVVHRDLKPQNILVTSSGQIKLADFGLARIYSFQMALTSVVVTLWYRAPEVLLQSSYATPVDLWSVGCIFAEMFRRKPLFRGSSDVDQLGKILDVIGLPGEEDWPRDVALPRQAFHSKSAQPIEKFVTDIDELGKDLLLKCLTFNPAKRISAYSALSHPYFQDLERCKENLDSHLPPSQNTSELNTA
# Sequence (P24385 whole entry partner): as the sequence (P24385 whole entry partner) above
# PROTOCOL_DETAILS: Kinase profiling
# STUDY_CONDITIONS: 10 semi-logarithmic dilutions from 50 μM, singlicate
PARAMETER: IC50 (nM)
Kindly answer with a numeric value in nM, unit omitted.

// known answers, use as guide
CC(O)COC1CCN(c2ccc(Nc3ncc4ccc(=O)n([C@@H]5CC6CCC5C6)c4n3)cc2)CC1 (stereo partly shown): 12.5
O=c1ccc2cnc(Nc3ccc(N4CCC(CCCO)CC4)cc3)nc2n1C1CC2CCC1C2 (stereo not shown) [PD-0183812, reference compound]: 19.9
CC(=O)c1c(C)c2cnc(Nc3ccc(N4CCC(CCCO)CC4)cc3)nc2n([C@@H]2CC3CCC2C3)c1=O (stereo partly shown): 19.5
CC(O)CCC1CCN(c2ccc(Nc3ncc4ccc(=O)n([C@@H]5CC6CCC5C6)c4n3)cc2)CC1 (stereo partly shown): 27.4
O=c1ccc2cnc(Nc3ccc(N4CCC(CCCO)CC4)c(F)c3)nc2n1[C@@H]1CC2CCC1C2 (stereo partly shown): 73.2

Consider the compound shown here: O=c1ccc2cnc(Nc3ccc(N4CCC(OCC5(CO)COC5)CC4)cc3)nc2n1[C@@H]1CC2CCC1C2 (stereo partly shown) What is its recorded IC50?
7.42

* * *

# MEASURED_ON: CDK8/CycC (Homo sapiens)
# Sequence (P49336 whole entry, one chain of several): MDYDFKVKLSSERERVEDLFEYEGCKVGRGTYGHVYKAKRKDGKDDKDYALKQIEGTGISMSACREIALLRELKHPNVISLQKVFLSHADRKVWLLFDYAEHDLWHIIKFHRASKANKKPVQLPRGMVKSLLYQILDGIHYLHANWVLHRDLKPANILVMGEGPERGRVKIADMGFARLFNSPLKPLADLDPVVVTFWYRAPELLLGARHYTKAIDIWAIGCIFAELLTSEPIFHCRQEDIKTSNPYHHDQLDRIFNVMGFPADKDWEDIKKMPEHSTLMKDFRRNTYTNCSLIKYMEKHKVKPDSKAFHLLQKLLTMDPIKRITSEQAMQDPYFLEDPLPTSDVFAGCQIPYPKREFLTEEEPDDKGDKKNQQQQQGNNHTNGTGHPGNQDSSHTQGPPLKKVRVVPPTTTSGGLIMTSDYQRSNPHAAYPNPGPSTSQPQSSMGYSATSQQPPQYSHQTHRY
# PROTOCOL_DETAILS: Kinase profiling
# Type: biochemical
# STUDY_CONDITIONS: 10 semi-logarithmic dilutions from 50 μM, singlicate
Listed here are compounds together with their documented pIC50.
Note on units: pIC50 is unitless, being -log10 of a concentration expressed in mol/L.

Worked cases, pIC50 given:
CN(C)C(=O)c1cc2cnc(Nc3ccc(N4CCNCC4)cn3)nc2n1C1CCCC1 [Ribociclib, reference compound]: 5.69
O=c1ccc2cnc(Nc3ccc(N4CCC(OCC5(CO)COC5)CC4)cc3)nc2n1[C@@H]1CC2CCC1C2 (some centres unmarked): 7.42
O=c1ccc2cnc(Nc3ccc(N4CCC(CCCO)CC4)cc3F)nc2n1[C@@H]1CC2CCC1C2 (some centres unmarked): 6.91

Sample CC(O)COC1CCN(c2ccc(Nc3ncc4ccc(=O)n([C@@H]5CC6CCC5C6)c4n3)cc2)CC1 (some centres unmarked) — what was its pIC50?
6.99

* * *

# MEASURED_ON: CDK3/CycC (Homo sapiens)
# Sequence (Q00526 whole entry): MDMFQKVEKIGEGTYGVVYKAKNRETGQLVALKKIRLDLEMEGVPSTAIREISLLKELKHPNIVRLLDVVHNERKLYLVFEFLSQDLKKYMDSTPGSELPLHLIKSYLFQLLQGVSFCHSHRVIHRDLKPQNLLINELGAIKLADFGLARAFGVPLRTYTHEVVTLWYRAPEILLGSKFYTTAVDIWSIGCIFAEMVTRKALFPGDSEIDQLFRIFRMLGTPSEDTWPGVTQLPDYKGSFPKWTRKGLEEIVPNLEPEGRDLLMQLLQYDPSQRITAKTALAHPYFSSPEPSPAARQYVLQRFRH
# Sequence (P24863 whole entry partner): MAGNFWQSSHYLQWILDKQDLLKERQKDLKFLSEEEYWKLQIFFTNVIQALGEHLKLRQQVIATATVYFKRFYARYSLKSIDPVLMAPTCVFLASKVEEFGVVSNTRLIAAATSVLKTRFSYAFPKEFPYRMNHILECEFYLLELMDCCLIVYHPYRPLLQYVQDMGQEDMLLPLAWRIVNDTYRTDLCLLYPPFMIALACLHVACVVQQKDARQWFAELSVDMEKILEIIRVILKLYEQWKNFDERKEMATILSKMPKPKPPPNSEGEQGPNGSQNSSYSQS
# PROTOCOL_DETAILS: Kinase profiling
# Format: biochemical
# STUDY_CONDITIONS: 10 semi-logarithmic dilutions from 50 μM, singlicate
Consider the following compounds and their measured pIC50 readings.
Hey, just a heads up that pIC50 is the negative log base 10 of the concentration in molar.

Observed pIC50 on CDK3/CycC (Homo sapiens) for CC(=O)c1c(C)c2cnc(Nc3ccc(N4CCNCC4)cc3)nc2n([C@@H]2CC3CCC2C3)c1=O (stereo partly drawn) , please.
6.77

Report pIC50 for "CC(=O)c1c(C)c2cnc(Nc3ccc(N4CCC(CCCO)CC4)cc3)nc2n(C2CCCC2)c1=O" tested on CDK3/CycC (Homo sapiens).
5.12

# value lookup — system CDK3/CycC (Homo sapiens), readout pIC50, item O=c1ccc2cnc(Nc3ccc(N4CCC(OCC5(CO)COC5)CC4)cc3)nc2n1[C@@H]1CC2CCC1C2 (stereo partly drawn)
6.26

Lab request: please report pIC50 under test system CDK3/CycC (Homo sapiens) for O=c1ccc2cnc(Nc3ccc(N4CCC(CCCO)CC4)cc3F)nc2n1[C@@H]1CC2CCC1C2 (stereo partly drawn)
4.57

State its pIC50 on CDK3/CycC (Homo sapiens): CC(O)CCN1CCN(c2ccc(Nc3ncc4ccc(=O)n([C@@H]5CC6CCC5C6)c4n3)cc2)CC1 (stereo partly drawn)
7.27

Checklist item: pIC50 tested on CDK3/CycC (Homo sapiens), entry CN(C)C(=O)c1cc2cnc(Nc3ccc(N4CCNCC4)cn3)nc2n1C1CCCC1 [Ribociclib, reference compound] , value?
6.49

Lab request: please report pIC50 under test system CDK3/CycC (Homo sapiens) for CC(O)COC1CCN(c2ccc(Nc3ncc4ccc(=O)n([C@@H]5CC6CCC5C6)c4n3)cc2)CC1 (stereo partly drawn)
6.05

What measured pIC50 is associated with CCN1CCN(Cc2ccc(Nc3ncc(F)c(-c4cc(F)c5nc(C)n(C(C)C)c5c4)n3)nc2)CC1 [Abemaciclib, reference compound] on CDK3/CycC (Homo sapiens)?
4.30

Observed pIC50 on CDK3/CycC (Homo sapiens) for O=c1ccc2cnc(Nc3ccc(N4CCNCC4)cc3)nc2n1[C@@H]1CC2CCC1C2 (stereo partly drawn) , please.
7.40

* * *

# MEASURED_ON: CDC7/DBF4 (Homo sapiens, UniProt O00311)
# PROTOCOL_DETAILS: Kinase profiling
# Assay type: biochemical
PARAMETER: IC50 (µM)
Please state the figure in µM; there is no need to write the unit.

Item CC[C@H](CO)Nc1nc(NCc2ccccc2)c2ncn(C(C)C)c2n1 [Roscovitine, reference compound] has what recorded IC50?
42.1
